- System: H9c2 cardiomyocytes, 2-deoxyglucose stress, ATP luminescence, 2 h
- test: H9c2 cell survival under 2-deoxyglucose stress – uHTS hits, dose response (AID 588780)
Calls of active or inactive are those of the source.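 How the source made its calls: active means compounds whose fitted half-maximal concentration in the cell-protection dose series is at or below a set limit; inactive means the rest.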
Answer with one of the outcomes active, inactive

Past entries and their recorded results:
{"compound": "O=C(N/N=C/c1ccccn1)c1ccc(NC(=O)c2cccc([N+](=O)[O-])c2)cc1", "target under test": "H9c2 cardiomyocytes, 2-deoxyglucose stress, ATP luminescence, 2 h", "assigned label": "active"}
{"compound": "CN(C(=O)CCc1nc2ccccc2c(=O)[nH]1)C1CCS(=O)(=O)C1 (stereo not given)", "target under test": "H9c2 cardiomyocytes, 2-deoxyglucose stress, ATP luminescence, 2 h", "assigned label": "inactive"}

## Input Answer briefly: the call reported for O=c1[nH]n(CC2COC3(CCCCC3)O2)c(=O)c2ccccc12 (stereo not given) in this assay.
## Output inactive

## Input "Cc1ccc(S(=O)(=O)N2CCN(C(=O)CCc3nc4ccccc4c(=O)[nH]3)CC2)c(C)c1" , same question.
## Output inactive

## Input CC(C)(C)OC(=O)NCC12C=CC(O1)C1C(=O)N(Cc3ccccc3)C(=O)C12 (stereo not given) , same question.
## Output inactive

## Input "CCN(Cc1ccccc1)C(=O)c1cc2c(=O)oc3ccc(C)cc3c2s1" , same question.
## Output inactive

## Input "O=C(COC(=O)Cc1n[nH]c(=O)c2ccccc12)NNC(=O)c1ccc(Br)cc1" , same question.
## Output inactive

====

- Tested on: H9c2 cardiomyocytes, 2-deoxyglucose stress, ATP luminescence, 2 h
- test: H9c2 cell survival under 2-deoxyglucose stress – uHTS hits, dose response (AID 588780)
Calls of active or inactive are those of the source.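 The calls were made as follows: active = compounds whose fitted half-maximal concentration in the cell-protection dose series is at or below a set limit; inactive = the rest.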
Answer with one of the outcomes active, inactive

{"compound": "N#CC(c1nc2ccccc2nc1N1CCCC1)S(=O)(=O)c1cccs1 (stereo unspecified)", "assigned label": "inactive"}
{"compound": "CCN(CC)CCn1c2c(c(SCC(=O)Nc3cccc(C(C)=O)c3)nc1=O)CCCC2", "assigned label": "active"}
{"compound": "COc1ccccc1OCC(=O)Nc1cccc(-c2nnc(-c3ccco3)o2)c1", "assigned label": "inactive"}
{"compound": "COc1cc(/C=N/NC(=O)NC23CC4CC(CC(C4)C2)C3)ccc1OCC(N)=O", "assigned label": "inactive"}
{"compound": "CCCN1C(=O)c2cc(C(=O)Nc3cccc(C(C)=O)c3)ccc2C1Nc1cccc(C(C)=O)c1 (stereo unspecified)", "assigned label": "active"}

## Input Answer briefly: the call reported for "O=C(NCc1ccco1)c1cc(-c2cccnc2)nc2ccc(Cl)cc12" in this assay.
## Output inactive

## Input "COc1nc(N/N=C/c2cc3c(cc2Br)OCO3)nc(N2CCOCC2)n1" , same question.
## Output active

## Input "CC(=O)Nc1ccc(-c2csc(NC(=O)Nc3ccccc3)n2)cc1" , same question.
## Output inactive

## Input "Cc1ccc(C(=O)N/N=C\c2ccc(-c3ccc(Cl)cc3)o2)cn1" , same question.
## Output active

## Input "COc1ccc(NC(=O)N(C)C[C@H]2Oc3c(NC(=O)Nc4ccc(C(F)(F)F)cc4)cccc3C(=O)N([C@H](C)CO)C[C@@H]2C)cc1" , same question.
## Output inactive

## Input "Cc1ccc(-c2n[nH]c(=O)c3ccccc23)cc1S(=O)(=O)NCCO" , same question.
## Output inactive

## Input "CCCCNC(=O)c1cn(-c2ccc(OCC)cc2)c(=O)c2cc(OC)c(OC)cc12" , same question.
## Output inactive

====

- Tested on: H9c2 cardiomyocytes, 2-deoxyglucose stress, ATP luminescence, 2 h
- test: H9c2 cell survival under 2-deoxyglucose stress – uHTS hits, dose response (AID 588780)
Active and inactive are the calls of the source.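 The calls were made as follows: active = compounds whose fitted half-maximal concentration in the cell-protection dose series is at or below a set limit; inactive = the rest.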
Answer with one of the outcomes active, inactive

## Input Answer briefly: the call reported for "NS(=O)(=O)c1ccc(N=Cc2c(O)n(-c3nccs3)c(=O)c3ccccc23)cc1" in this assay.
## Output inactive

====

- Tested on: H9c2 cardiomyocytes, 2-deoxyglucose stress, ATP luminescence, 2 h
- test: H9c2 cell survival under 2-deoxyglucose stress – uHTS hits, dose response (AID 588780)
The source made the active and inactive calls.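 Rule for the calls: active = compounds whose fitted half-maximal concentration in the cell-protection dose series is at or below a set limit; inactive = the rest.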
Answer with one of the outcomes active, inactive

Past entries and their recorded results:
{"compound": "CCOc1cccc(-c2nn3c(-c4ccco4)nnc3s2)c1", "assigned label": "active"}
{"compound": "Cc1ccc(C(=O)Nc2nc(-c3ccccn3)cs2)s1", "assigned label": "inactive"}
{"compound": "O=C(COC(=O)Cc1n[nH]c(=O)c2ccccc12)Nc1ncc(Cl)cc1Cl", "assigned label": "inactive"}
{"compound": "CCCc1cc(N2CCN(C(=O)c3ccco3)CC2)n2c(nc3ccccc32)c1C#N", "assigned label": "active"}
{"compound": "CC(=NCCCn1ccnc1)c1c(-c2ccccc2)[nH]n(-c2nc3ccccc3s2)c1=O", "assigned label": "inactive"}
{"compound": "Oc1ccc(Cl)cc1C=Nc1ccc2c3c(cccc13)CC2", "assigned label": "inactive"}
{"compound": "COc1ccc(Nc2nc(C(=O)N3CCc4cc(OC)c(OC)cc4C3)cs2)cc1", "assigned label": "inactive"}
{"compound": "COc1ccnc(Oc2ccccc2)c1C(=O)N/C=N/OCc1ccc(F)cc1Cl", "assigned label": "inactive"}
{"compound": "COc1ccccc1C(=O)Nc1nc(-c2ccc3c(c2)OCCO3)cs1", "assigned label": "inactive"}
{"compound": "O=C(CCCN1C(=O)c2cccc3cccc(c23)C1=O)N1CCN(c2ccccc2O)CC1", "assigned label": "active"}

## Input Answer briefly: the call reported for CC1CN(c2nn3c(=O)c4ccccc4nc3c3ccccc23)CC(C)O1 (configuration not stated) in this assay.
## Output inactive

## Input "COc1cc(OC)cc(C(=O)NNC(=O)c2ccccn2)c1" , same question.
## Output inactive

====

- System: H9c2 cardiomyocytes, 2-deoxyglucose stress, ATP luminescence, 2 h
- test: H9c2 cell survival under 2-deoxyglucose stress – uHTS hits, dose response (AID 588780)
The source made the active and inactive calls.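 Rule for the calls: active = compounds whose fitted half-maximal concentration in the cell-protection dose series is at or below a set limit; inactive = the rest.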
Answer with one of the outcomes T = active, F = inactive

Past entries and their recorded results:
{"molecule": "Nc1c(C(=O)NC2CC2)c2nc3ccccc3nc2n1-c1ccc2c(c1)OCO2", "assigned label": "F"}
{"molecule": "NC(=O)c1nsc(C(=O)N(c2ccccc2F)C(C(=O)NCc2ccccc2)c2ccc(O)cc2)c1N (stereo not given)", "assigned label": "F"}
{"molecule": "Cn1c(=O)c2c(nc(Br)n2Cc2ccc3ccccc3c2)n(C)c1=O", "assigned label": "F"}

## Input Answer briefly: the call reported for "COc1cccc(OC)c1C(=O)Nc1ccc(Br)c(C(=O)c2ccccc2)c1" in this assay.
## Output T

====

- Test system: H9c2 cardiomyocytes, 2-deoxyglucose stress, ATP luminescence, 2 h
- test: H9c2 cell survival under 2-deoxyglucose stress – uHTS hits, dose response (AID 588780)
Calls of active or inactive are those of the source.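 How the source made its calls: active means compounds whose fitted half-maximal concentration in the cell-protection dose series is at or below a set limit; inactive means the rest.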
Answer with one of the outcomes 1.0 = active, 0.0 = inactive

{"molecule": "O=C(COC(=O)Cc1n[nH]c(=O)c2ccccc12)Nc1ccc(Cl)cc1F", "assigned label": 0.0}
{"molecule": "COc1ccc(C=CC(=O)c2ccc3cc(OC)c(OC)cc3c2)cc1OC", "assigned label": 0.0}
{"molecule": "Cc1ccc(C(C(=O)NCc2ccccc2)N(Cc2ccco2)C(=O)c2snc(C(N)=O)c2N)o1 (stereo not given)", "assigned label": 0.0}
{"molecule": "COc1ccc2[nH]c(=O)c(CN(c3ccccc3OC)S(=O)(=O)c3ccccc3)cc2c1", "assigned label": 1.0}

## Input Answer briefly: the call reported for "COC(=O)N1C(=O)[C@](c2ccccc2)(C2CCCCC2)N1C(=O)OC" in this assay.
## Output 1.0

====

// reported IC50 for each item listed
- Test system: H9c2 cardiomyocytes, 2-deoxyglucose stress, ATP luminescence, 2 h
- test: H9c2 cell survival under 2-deoxyglucose stress – uHTS hits, dose response (AID 588780)
The source made the active and inactive calls.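 Rule for the calls: active = compounds whose fitted half-maximal concentration in the cell-protection dose series is at or below a set limit; inactive = the rest.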

Reference set (6 entries):
{"molecule": "Oc1ccc(Cl)cc1C=Nc1ccc(Br)cc1", "parameter": "IC50", "experimental result": "> 79 µM (inactive)"}
{"molecule": "COc1ccc(-c2cc(C(=O)N(C)Cc3ccc(OC)c(OC)c3OC)c3ccccc3n2)cc1OC", "parameter": "IC50", "experimental result": "10.4 µM"}
{"molecule": "CCCCCn1nc(C(=O)OCC(=O)c2c(N)n(C)c(=O)n(C)c2=O)c2ccccc2c1=O", "parameter": "IC50", "experimental result": "20.1 µM"}
{"molecule": "O=C(Cn1[nH]c(=O)c2ccccc2c1=O)N1CC=C(c2ccccc2)CC1", "parameter": "IC50", "experimental result": "21 µM"}
{"molecule": "CCc1nc2ccc(C(=O)Nc3cccc(OCC(=O)N(C)C)c3)cn2c1N(C)Cc1cc2ccccc2s1", "parameter": "IC50", "experimental result": "11.8 µM"}
{"molecule": "CC(C)(C)OC(=O)NCc1ccc(NC(=O)c2nc[nH]c2C(=O)NCCCCCCNC(=O)c2[nH]cnc2C(=O)Nc2ccc(CNC(=O)OC(C)(C)C)cc2)cc1", "parameter": "IC50", "experimental result": "> 79 µM (inactive)"}

## Input Would you mind telling me what IC50 value was observed for "Cn1c2ccccc2c2cc(/C=N/NC(=O)c3cc(O)ccc3O)ccc21" ?
## Output > 79 µM (inactive)

## Input CCOC(=O)C(Cc1ccc(NC(=O)/C(=C/c2ccc(OC(C)=O)cc2)NC(C)=O)cc1)N1C(=O)c2ccccc2C1=O (centres undefined) , same question.
## Output > 79 µM (inactive)

## Input "O=C(Nc1ccc(C(=O)N2CCOCC2)cc1)c1cnn2c(C(F)F)cc(-c3ccccc3)nc12" , same question.
## Output > 79 µM (inactive)
